- SYSTEM: human ether-à-go-go-related gene (hERG) potassium channel (human)
- TEST_DETAILS: primary screen, population patch clamp on CHO cells stably expressing hERG; higher = less effect of the substance
- From the text: Briefly, Chinese hamster ovary (CHO) cells stably expressing the hERG channel were dislodged from tissue culture flasks and dispensed into PPC plates. […] Small molecule effects on hERG current density were quantified by […].
Among all 310,000 compounds or so, about 2,200 (0.71%) showed an effect of 50% or more. The effect is printed as a negative number. The full list was thinned out, with strong results kept by preference.
MEASURE: hERG current change (%, negative = inhibition) at 1uM (%)
Answer with a number only, understood to be in %.

Here are 5 compounds together with their reported answers.
{"columns": ["COMPOUND", "SYSTEM", "OBSERVED"],
 "data": [
  ["CN1CCN(c2nc(-c3cccs3)nc3ccccc23)CC1", "human ether-à-go-go-related gene (hERG) potassium channel (human)", -55],
  ["Cc1nn(C(C)C(=O)Nc2ccc(Cl)cn2)c(C)c1[N+](=O)[O-] (stereo not shown)", "human ether-à-go-go-related gene (hERG) potassium channel (human)", 2.84],
  ["Cc1ccc(S(=O)(=O)N(CC(=O)NCc2cccnc2)c2ccc(F)cc2)cc1", "human ether-à-go-go-related gene (hERG) potassium channel (human)", -38.1],
  ["CCCN1CCN(c2nc(-c3cccs3)nc3ccccc23)CC1", "human ether-à-go-go-related gene (hERG) potassium channel (human)", -16.1],
  ["CCOC(=O)c1sc(-c2ccccc2)nc1C", "human ether-à-go-go-related gene (hERG) potassium channel (human)", 9.24]
]}

(Q) Which hERG current change (%, negative = inhibition) at 1uM reading was recorded for the compound COc1ccc(S(=O)(=O)N(CC(=O)NCc2cccnc2)Cc2ccccc2)cc1 ?
(A) -51.2

(Q) Again, but for CCc1nnc(NC(=O)C2CCC2)s1
(A) 3.46

(Q) Lookup Cn1cccc1/C=N/N1CCN(c2ccccc2)CC1
(A) 18.1

(Q) Similarly, c1coc(-c2nnc(SCc3cn4ccccc4n3)o2)c1 ?
(A) -2.53

(Q) Next entry: CCOC(=O)N1CCN(Cc2nc(N)nc(Nc3ccc(Cl)cc3)n2)CC1
(A) -22.7

---

Known hERG current change (%, negative = inhibition) at 1uM of a selection of compounds
- SYSTEM: human ether-à-go-go-related gene (hERG) potassium channel (human, UniProt Q12809)
- Sequence (Q12809 whole entry, looked up): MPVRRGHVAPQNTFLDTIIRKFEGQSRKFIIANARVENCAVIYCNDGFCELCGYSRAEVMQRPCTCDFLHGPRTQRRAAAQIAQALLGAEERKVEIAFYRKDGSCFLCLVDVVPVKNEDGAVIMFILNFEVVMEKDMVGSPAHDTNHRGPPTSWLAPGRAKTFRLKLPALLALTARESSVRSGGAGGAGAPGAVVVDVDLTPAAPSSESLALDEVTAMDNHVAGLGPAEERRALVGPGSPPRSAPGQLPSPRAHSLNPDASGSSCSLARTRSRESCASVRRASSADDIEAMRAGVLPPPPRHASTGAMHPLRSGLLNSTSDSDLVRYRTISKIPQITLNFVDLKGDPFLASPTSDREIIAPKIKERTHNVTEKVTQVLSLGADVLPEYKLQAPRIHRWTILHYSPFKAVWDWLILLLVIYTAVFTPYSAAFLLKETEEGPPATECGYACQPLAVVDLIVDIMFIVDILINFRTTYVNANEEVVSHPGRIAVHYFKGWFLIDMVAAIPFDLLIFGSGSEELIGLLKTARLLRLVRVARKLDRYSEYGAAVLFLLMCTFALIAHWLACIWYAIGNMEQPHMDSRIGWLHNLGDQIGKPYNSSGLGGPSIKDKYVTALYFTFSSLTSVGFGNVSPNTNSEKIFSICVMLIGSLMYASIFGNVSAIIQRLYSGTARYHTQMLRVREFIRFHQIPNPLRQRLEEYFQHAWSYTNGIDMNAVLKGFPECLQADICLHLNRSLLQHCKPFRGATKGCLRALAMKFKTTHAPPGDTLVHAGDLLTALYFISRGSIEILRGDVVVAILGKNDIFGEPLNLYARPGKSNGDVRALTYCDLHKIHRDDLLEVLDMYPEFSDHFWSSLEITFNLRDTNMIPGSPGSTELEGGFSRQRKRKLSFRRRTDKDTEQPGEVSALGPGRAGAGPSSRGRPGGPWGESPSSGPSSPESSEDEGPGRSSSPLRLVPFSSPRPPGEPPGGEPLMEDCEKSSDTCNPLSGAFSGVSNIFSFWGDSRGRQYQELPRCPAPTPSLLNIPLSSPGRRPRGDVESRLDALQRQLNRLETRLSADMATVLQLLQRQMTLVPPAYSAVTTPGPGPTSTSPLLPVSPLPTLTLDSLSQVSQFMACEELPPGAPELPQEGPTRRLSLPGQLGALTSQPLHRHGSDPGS
- TEST_DETAILS: primary screen, population patch clamp on CHO cells stably expressing hERG; higher = less effect of the substance
The whole screen tested about 310,000 compounds, of which about 2,200 (0.71%) showed an effect of 50% or more. The effect is printed as a negative number. The entries come from a sample that favours strong results as a whole.
Response body: numeric value in %, unit text excluded.

Past entries and their recorded results:
{"columns": ["COMPOUND", "OBSERVED"],
 "data": [
  ["Cc1ccc(S(=O)(=O)N2CCN(C(=O)c3nn(C(C)C)c(=O)c4ccccc34)CC2)cc1C", 5.96],
  ["CC(=O)N1CCN(c2ccccc2NC(=O)c2ccc(-c3cccc([N+](=O)[O-])c3)o2)CC1", -81.6]
]}

(Q) Fill in: hERG current change (%, negative = inhibition) at 1uM of Cc1cccn2c(=O)c3cc(C(=O)NC(C)c4ccccc4)c(=N)n(CCCn4ccnc4)c3nc12 (centres unmarked) is ___
(A) -10.8

(Q) One more compound: CCCCCn1c(CN2CCN(Cc3ccccc3)CC2)nc2c1c(=O)n(C)c(=O)n2C
(A) -57.9

(Q) Entry to check: O=C(Nc1ccccc1N1CCOCC1)c1ccc([N+](=O)[O-])o1
(A) -1

(Q) Now the compound Cc1ccc(S(=O)(=O)N(CC(=O)NCc2ccncc2)Cc2ccc(F)cc2)cc1
(A) -75

(Q) Item: Cc1cccn2c(=O)c3cc(C(=O)NCCN4CCOCC4)c(=N)n(CCc4ccccc4)c3nc12
(A) -71.8

(Q) Param item: Clc1ccc(-c2nc(NCCN3CCOCC3)c3ccccc3n2)cc1
(A) -16.9

(Q) Next compound: CCCCCn1c(N2CCC(Cc3ccccc3)CC2)nc2c1c(=O)[nH]c(=O)n2C
(A) 11.2

(Q) Now this one: O=S(=O)(Nc1ccc(Cl)cn1)c1ccc(Cl)cc1
(A) 16.8

(Q) Try the compound COc1ccc(NC(=S)N(CCCN2CCCCC2)Cc2cccs2)cc1
(A) -50.1

(Q) Field entry: CCN(C(=S)Nc1ccc(Oc2ccccc2)cc1)c1ccccc1
(A) 21.1

(Q) Record: CCN(CC(=O)NCc1ccc(F)cc1)S(=O)(=O)c1ccc(C)cc1
(A) -13.7

(Q) For COc1ccc(S(=O)(=O)NCC2CCCN(C(=O)c3cccnc3C)C2)cc1 (centres unmarked) then?
(A) 14

(Q) Next up: NC(=O)CSc1nc(-c2ccccc2)c(-c2ccccc2)o1
(A) 8.48

(Q) Similarly, Oc1[nH]c2ccccc2c1C1=NCCCCC1 ?
(A) 3.28

(Q) Now consider COCCN(C(=O)CSc1nc(-c2ccccc2)cn1N)c1c(N)n(Cc2ccccc2)c(=O)[nH]c1=O and answer again.
(A) 3.04

(Q) Repeat with COc1ccc(NC(=S)N(CCCN2CCC(C)CC2)Cc2cccs2)cc1
(A) -47.5

(Q) Ok, now CCC(=O)N1CCN(c2ccc(Cl)cc2NC(=O)c2ccc([N+](=O)[O-])o2)CC1
(A) 0.198

(Q) Continue with Cc1ccc(S(=O)(=O)N(CC(=O)NCc2ccncc2)Cc2ccccc2F)cc1
(A) -53.2
